Target: Glutathione S-transferase omega-1 (Homo sapiens)
Test: GSTO1 inhibitor potency, recombinant enzyme, late-stage follow-up, biochemical, SE-Rh probe, in-gel fluorescence, powder samples (AID 463081)
Settings: recombinant GSTO1, SE-Rh probe labeling
measured.attribute: IC50

[ask] Look at this compound and give its reported IC50. COc1ccc(C(C(=O)NC2CCCCC2)N(C(=O)CCl)c2ccc(Cl)cc2)cc1 (stereo unspecified)
[reply] 22 nM
